assay: Quantitative High-Throughput drug screen in 47 multiple myeloma cell lines against the NCATS MIPE library collection: Delta47_JCRB cell viability assay (AID 1918925; note: nearly all actives have a fitted effect of over 45% in size; note: potency is the fitted concentration of half-maximal effect)
assaySetup: Delta47 myeloma viability, CellTiter-Glo ATP, 48 h; series mostly up to 45.8 µM
Records with an inconclusive call do not appear. Calls of active or inactive are those of the source. Calls come from the whole dose curve; as a rule, active = well fitted cell-killing curve with a large enough effect; inconclusive = small, poorly fitted or top-dose-only effect, or effect the other way; inactive = no such curve, though single readings can be large or run the other way.
measurementType: Potency

// below: answered compounds
compound: CN(C)c1cc(NC(=O)CNC(C)(C)C)c(O)c2c1C[C@@H]1C[C@H]3[C@H](N(C)C)C(=O)C(C(N)=O)=C(O)[C@@]3(O)C(=O)C1=C2O
Potency: inactive
--
compound: Cn1c(N2CCCCS2(=O)=O)nc(C(=O)NCc2ccc(F)cc2)c(O)c1=O
Potency: inactive
--
compound: O=c1cc(N2CCOCC2)oc2c(-c3cccc4c3sc3ccccc34)cccc12
Potency: 3.32 µM (active)
--
compound: C[C@H](NC(=O)c1sccc1OCc1ccc(Cl)cc1)c1ccccc1
Potency: 20.9 µM (active)
--
compound: O=C(O)c1ccc(-c2cc3cccnc3c(-c3ccc4nonc4c3)n2)cc1
Potency: 23.5 µM (active)
--
compound: COCCOC(=O)C1=C(C)NC2=C(C(=O)CC(c3ccccc3OC)C2)C1c1cccc(O)c1 (configuration not stated)
Potency: 1.05 µM (active)

// next item, Potency requested
Consider `C[C@@H]1CCN(C(=O)CC#N)C[C@H]1N(C)c1ncnc2[nH]ccc12` . Its measured Potency is inactive

* * *

The entries below are paired with their reported Z-AUC.
assay: qHTS drug screen for cell cycle checkpoint inhibitors in PARPi-resistant BRCA-mutant ovarian cancer cell lines. (AID 1963452)
assaySetup: PEO1/OlaR viability, CellTiter-Glo luminescence, 96 h; active compounds read low
Description: Women's Malignancies Branch, Center for Cancer Research (CCR), National Cancer Institute (NCI), National Institutes of Health (NIH), Bethesda, MD Poly (ADP-ribose) polymerase inhibitors (PARPis) have changed the treatment paradigm in breast cancer gene (BRCA) - mutant high-grade serous ovarian carcinoma (HGSC). […] 6; Detection; Luminescence, PHERAstar (BMG Labtech) plate reader. […] 6. Luminescence readings were taken using PHERAstar (BMG Labtech). […]
Activity calls are given as the source filed them. The call rests on the fitted dose curve.

// below: answered molecules
molecule: N[C@@]1(C(=O)O)CS(=O)(=O)[C@H]2[C@H](C(=O)O)[C@H]21
Z-AUC: -0.18 (inactive)
--
molecule: NC(=O)c1ccc2nc(-c3ccc(Oc4ccc(Cl)cc4)cc3)[nH]c2c1
Z-AUC: -1.56 (inactive)
--
molecule: CCOc1ccc(Nc2nc(-c3c(C)nc4ccccn34)cs2)cc1
Z-AUC: -0.0903 (inactive)
--
molecule: Clc1ccc(COC(Cn2ccnc2)c2ccc(Cl)cc2Cl)cc1 (centres undefined)
Z-AUC: 0.343 (inactive)
--
molecule: CC(=O)Nc1ccc([C@H](C)C(=O)Nc2ncc(C(C)C)s2)cc1
Z-AUC: -0.905 (inactive)

Consider C=C1C(=O)OC(CCCCCCCC)C1C(=O)O (centres undefined) . Its measured Z-AUC is 0.778 (inactive)

Consider `COC(=O)[C@@H]1[C@H]2C[C@H]3c4[nH]c5ccccc5c4CCN3C[C@@H]2CC[C@@H]1O` . Its measured Z-AUC is 0.808 (inactive)

Consider `CC(C)(C)c1cc(C(=O)O)c(NC(=O)Nc2ccc3[nH]ncc3c2)s1` . Its measured Z-AUC is -0.548 (inactive)

Consider CC(=O)Oc1cc2c(s1)CCN(C(C(=O)C1CC1)c1ccccc1F)C2 (centres undefined) . Its measured Z-AUC is 0.888 (inactive)

Consider CC(C(=O)O)c1ccc(-c2ccccc2)c(F)c1 (centres undefined) . Its measured Z-AUC is 0.668 (inactive)

* * *

assay: Cytometry Cell-Based qHTS for Inhibitors of the mTORC1 Signaling Pathway in MEF cells (AID 2668)
assaySetup: mTORC1 pathway readout; series mostly up to 38.3 µM
Results filed as inconclusive are left out. Calls of active or inactive are those of the source. Calls follow the shape of the dose curve; as a rule, active = well fitted inhibition curve with a large enough effect; inconclusive = small, poorly fitted or top-dose-only effect; inactive = flat fitted curve, though single readings scatter.
# output must be one of active, inactive

For this molecule, state the assay outcome: `O=C(NCCN1CCOCC1)c1ccc(Cl)cc1`
inactive

For this molecule, state the assay outcome: `CCCCCN(C)CCC(O)(P(=O)(O)O)P(=O)(O)O`
inactive

For this molecule, state the assay outcome: CC(C)NCC(O)COc1cccc2[nH]ccc12 (stereo not given)
inactive

For this molecule, state the assay outcome: `CCCNC(=O)NS(=O)(=O)c1ccc(Cl)cc1`
inactive

For this molecule, state the assay outcome: `CC1=C(/C=C/C(C)=C/C=C/C(C)=C/C(=O)Nc2ccc(O)cc2)C(C)(C)CCC1`
active

For this molecule, state the assay outcome: `O=c1cc(-c2ccc(O)cc2)oc2cc(O)cc(O)c12`
inactive

For this molecule, state the assay outcome: `COc1cccc(-c2cc(=O)c3ccccc3o2)c1N`
inactive

For this molecule, state the assay outcome: `COc1ccc(Cc2nccc3cc(OC)c(OC)cc23)cc1OC`
inactive

For this molecule, state the assay outcome: `CCN(CC)CCOC(=O)c1ccc(N)cc1`
inactive

For this molecule, state the assay outcome: `CCN1CCC[C@H]1CNC(=O)c1cc(S(N)(=O)=O)ccc1OC`
inactive

* * *

Test system: NIH3T3
assay: Cytotoxic Profiling of Annotated Libraries Using Quantitative High-Throughput Screening (AID 1296008); note: nearly all actives have a fitted effect of over 60% in size; note: potency is the fitted concentration of half-maximal effect
assaySetup: Five cell lines viability, CellTiter-Glo ATP luminescence, 48-72 h
Records with an inconclusive call do not appear. The source made the active and inactive calls. Calls come from the whole dose curve; as a rule, active = well fitted inhibition curve with a large enough effect; inconclusive = small, poorly fitted or top-dose-only effect; inactive = flat fitted curve, though single readings scatter.
measurementType: Potency

// below: answered compounds
compound: O=C(OCC#CCSc1nnc(-c2cccc3ccccc23)o1)c1cc2ccccc2s1
Potency: inactive

compound: CC1=C(/C=C/C(C)=C/C=C/C(C)=C/C(=O)Nc2ccc(O)cc2)C(C)(C)CCC1
Potency: 21.1 µM (active)

compound: O=C(O)c1ccccc1C(=O)Nc1ccc(-c2ccccc2)cc1
Potency: inactive

compound: OC[C@@H](O)[C@H](O)[C@H](O)[C@@H](O)CO
Potency: inactive

Consider `COc1ccccc1N1CCN(CCCNc2cc(=O)n(C)c(=O)n2C)CC1` . Its measured Potency is inactive

Consider `O=C(O)c1cc(-c2ccccc2)nc2ccccc12` . Its measured Potency is inactive

Consider `CCn1c(C(=O)N(C2CC2)C2CC2)cc2c3c(ncn3C)c(Nc3cc(C)n(C)n3)nc21` . Its measured Potency is 23.5 µM (active)

Consider `N[C@H](CSC(c1ccccc1)(c1ccccc1)c1ccccc1)C(=O)O` . Its measured Potency is 26.4 µM (active)

* * *

assay: Quantitative High-Throughput drug screen in 47 multiple myeloma cell lines against the NCATS MIPE library collection: JJN3_DSMZ cell viability assay (AID 1918966; note: nearly all actives have a fitted effect of over 50% in size)
assaySetup: JJN3 myeloma cells viability, CellTiter-Glo ATP, 48 h; series mostly up to 45.8 µM
Excerpt: PI: Beverly A. Mock Ph.D. Laboratory of Cancer Biology and Genetics, Center for Cancer Research, National Cancer Institute, National Institute of Health, Bethesda, Maryland […] 5; Detector; 425V; Luminescence; Viewlux PerkinElmer. […] 1. […] Briefly, the corresponding myeloma cell lines were screened in 1,536-well plates with 500 cells, 5-uL per well for inhibition of cell viability (assessed by measuring ATP levels with CellTiterGlo). […]
Inconclusive results are not listed. The source made the active and inactive calls. Calls follow the shape of the dose curve; as a rule, active = well fitted cell-killing curve with a large enough effect; inconclusive = small, poorly fitted or top-dose-only effect, or effect the other way; inactive = no such curve, though single readings can be large or run the other way.
# output must be one of active, inactive

For this molecule, state the assay outcome: Cc1ccc(C(C)(O)c2nc3ccccc3s2)c(C)c1 (configuration not stated)
inactive

For this molecule, state the assay outcome: CCOC(=O)C1=C(N)Oc2ccc(Br)cc2C1C(C#N)C(=O)OCC (configuration not stated)
active

For this molecule, state the assay outcome: `O=C1c2c(O)cc(O)cc2O[C@H](c2cc(O)c(O)c(O)c2)[C@H]1O`
active

For this molecule, state the assay outcome: CC[C@]1(O)C[C@@H]2CN(CCc3c([nH]c4ccccc34)[C@@](C(=O)OC)(c3cc4c(cc3OC)N(C=O)[C@@H]3C45CCN4CC=C[C@](CC)([C@H]45)[C@@H](OC(C)=O)[C@]3(O)C(=O)OC)C2)C1 (some centres not stated)
active

For this molecule, state the assay outcome: `COc1cc2c(cc1OC)CN(CCc1ccc(NC(=O)c3cc(OC)c(OC)cc3NC(=O)c3cnc4ccccc4c3)cc1)CC2`
active

For this molecule, state the assay outcome: `CC(=O)N(C)C1(c2ccccc2)CCN(CCC[C@]2(c3ccc(Cl)c(Cl)c3)CCCN(C(=O)c3ccccc3)C2)CC1`
active

For this molecule, state the assay outcome: `CC1(C)CCC(CN2CCN(c3ccc(C(=O)NS(=O)(=O)c4ccc(NCC5CCOCC5)c([N+](=O)[O-])c4)c(Oc4cnc5[nH]ccc5c4)c3)CC2)=C(c2ccc(Cl)cc2)C1`
active

For this molecule, state the assay outcome: `O=C(O)C=Cc1ccc(O)c(O)c1`
active

For this molecule, state the assay outcome: `CC1(C)O[C@H]2C[C@@H]3[C@H]4CCC5=CC(=O)C=C[C@]5(C)[C@@]4(F)[C@@H](O)C[C@]3(C)[C@]2(C(=O)CO)O1`
inactive

For this molecule, state the assay outcome: `O=c1c(-c2ccc(O)cc2)coc2cc(O[C@@H]3O[C@H](CO)[C@H](O)[C@H](O)[C@H]3O)ccc12`
inactive

For this molecule, state the assay outcome: C=C1C(=O)OC2C=C(C)CCC=C(C)CCC12 (configuration not stated)
active

For this molecule, state the assay outcome: `CCC(CC)[C@H](NC(C)=O)[C@@H]1[C@H](O)[C@@H](C(=O)O)C[C@@H]1N=C(N)N`
inactive
